Data origin: paper PMC9643456

Test system: human red blood cells
MEASUREMENT PROTOCOL: Hemolytic activity
Format: cell-based
CONDITION DESCRIPTION: red cells of human, 18 h, 50
Square brackets hold non-standard residues; d marks the D form. Peptide text beside a SMILES is read from it.
METRIC NAME: Hemolysis percent, 50 μM (%)

CC[C@@H](C)[C@@H](NC(=O)[C@@H](Cc1c[nH]c2ccccc12)NC(=O)[C@@H](CC(C)C)NC(=O)[C@H](N)CC(C)C)C(=O)NCC(=O)N[C@H](CC(C)C)C(=O)N[C@H](CCCNC(=N)N)C(=O)N[C@H](CCCCN)C(=O)N[C@H](CCCCN)C(=O)N[C@H](CCCNC(=N)N)C(N)=O [WCopW13] (H-[dL][dL][dW][dI]G[dL][dR][dK][dK][dR]-NH2); 1.13
CC[C@@H](C)[C@@H](NC(=O)[C@@H](Cc1c[nH]c2ccccc12)NC(=O)[C@@H](CCCNC(=N)N)NC(=O)[C@H](N)CCCNC(=N)N)C(=O)N[C@H](Cc1c[nH]c2ccccc12)C(=O)N[C@@H](C(=O)N[C@@H](C(=O)N[C@H](Cc1c[nH]c2ccccc12)C(=O)N[C@H](CCCNC(=N)N)C(N)=O)[C@H](C)CC)C(C)C [WCopW54] (H-[dR][dR][dW][dI][dW][dV][dI][dW][dR]-NH2); 11.43
CC[C@@H](C)[C@@H](NC(=O)[C@@H](Cc1c[nH]c2ccccc12)NC(=O)[C@H](NC(=O)[C@@H](CC(C)C)NC(=O)[C@H](N)Cc1c[nH]c2ccccc12)C(C)C)C(=O)N[C@H](Cc1c[nH]c2ccccc12)C(=O)N[C@H](CCC(N)=O)C(=O)N[C@H](CCCNC(=N)N)C(=O)N[C@H](CCCNC(=N)N)C(=O)N[C@H](CCCNC(=N)N)C(N)=O [WCopW30] (H-[dW][dL][dV][dW][dI][dW][dQ][dR][dR][dR]-NH2); 2.74
CC[C@@H](C)[C@@H](NC(=O)[C@@H](CC(C)C)NC(=O)[C@H](N)Cc1c[nH]c2ccccc12)C(=O)N[C@H](Cc1c[nH]c2ccccc12)C(=O)N[C@@H](C(=O)N[C@H](Cc1ccc(O)cc1)C(=O)N[C@H](CCCNC(=N)N)C(=O)N[C@H](CCCCN)C(=O)N[C@H](CCCCN)C(=O)N[C@H](CCCNC(=N)N)C(N)=O)C(C)C [WCopW27] (H-[dW][dL][dI][dW][dV][dY][dR][dK][dK][dR]-NH2); 3.95
CC[C@@H](C)[C@@H](NC(=O)[C@@H](Cc1c[nH]c2ccccc12)NC(=O)[C@@H](CC(C)C)NC(=O)[C@@H](CC(C)C)NC(=O)[C@H](N)Cc1c[nH]c2ccccc12)C(=O)NCC(=O)N[C@H](CC(C)C)C(=O)N[C@H](CCCNC(=N)N)C(=O)N[C@H](CCCCN)C(=O)N[C@H](CCCCN)C(N)=O [WCopW8] (H-[dW][dL][dL][dW][dI]G[dL][dR][dK][dK]-NH2); 8.51
